Exercise: state measured IL2RB Blocking for each of the binders provided.
Target: T1, human IL-2 (human, UniProt P60568 21-153, biotin-labeled in the IL2RB blocking assay)
T1 construct: also called biotin-labeled IL-2 (Acro Biosystems IL2-H82E4)
T1 sequence (P60568 21-153 limits assumed): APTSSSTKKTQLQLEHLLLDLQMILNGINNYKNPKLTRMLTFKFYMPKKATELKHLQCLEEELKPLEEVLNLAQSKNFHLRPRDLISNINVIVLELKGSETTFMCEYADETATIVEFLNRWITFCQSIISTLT
Test: HTRF IL-2:IL2RB
# print the numeric value only

# input State, in one line, measured IL2RB Blocking of PD1-R04-C10 (scFv, tied by the comment 'PD1_R04_C10- Internal anti-PD1 mAb' of PEP001315) scFv: MSTSTEQKLISEEDLQVQLVQSGAEVKKPGASVKVSCKASGYTFTTYYMHWVRQAPGQGLEWMGIINPSGGGTLYAQKFQGRVTMTRDTSTSTVYMELSSLRSEDTAVYYCAAGLFIWGQGTTVTVSSASGGGGSGGGGSGGGGSHASDIVMTQSPDSLAVSLGERATINCKASQSLLHSSSNKNYLAWYQQKPGQPPKLLIYWASTRESGVPDRFSGSGSGTDFTLTISSLQAEDVAVYYCQQYYSTPITFGPGTKVDIKGSGLNDIFEAQKIEWHEGKPIPNPLLGLDST
# output 1550

# input State, in one line, measured IL2RB Blocking of PD1-IL2-R02-A11 (scFv, V domains shown, cf) VH: QVQLVQSGAEVKKPGASVKVSCKASGHTFTRYYMHWVRQAPGQGLEWMGIINPSGGYATYAQKFQGRVTMTRDTSTSTVYMELSSLRSEDTAVYYCASGWDVWGQGTLVTVSS VL: DIQMTQSPSSLSASVGDRVTITCRASQSINSWLAWYQQKPGKAPKLLIYATSTLESGVPSRFSGSGSGTDFTLTISSLQPEDFATYYCQQSYSFPPTFGQGTKVEIK
# output 1780

# input State, in one line, measured IL2RB Blocking of PD1-IL2-R07-A04 (scFv) QVQLVQSGAEVKKPGASVKVSCKASGYTFTDYYMHWVRQAPGQGLEWMGIINPRAGYTSYALKFQGRVTMTRDTSTSTVYMELSSLRSEDTAVYYCTSGMDVWGQGTLVTVSSASGGGGSGGGGSGGGGSHASDIQMTQSPSSLSASVGDRVTITCRASQSISTWLAWYQQKPGKAPKLLIYAASSLQSGVPSRFSGSGSGTDFTLTISSLQPEDFATYYCQQSYSFPVTFGQGTKVEIK
# output 1610

Value source: patent US20240366776A1
